The measured values listed here are drawn from ChEMBL document CHEMBL5046262.

Assay: Total clearance in CD-1 mouse at 3 mg/kg, iv measured upto 24 hrs by LC-MS/MS analysis
Assay type: ADME, organism-based
Conditions: in vivo

# Chemical string, clearance, mL/min/kg
records = [
    ("Cn1ncc(-c2ccc3c(=O)[nH]nc(CN)c3c2)c1-c1c(F)c(Cl)cc(OC2CC2)c1C#N", 83),
    ("Cn1ncc(-c2ccc3c(=O)[nH]nc(CN)c3c2)c1-c1c(F)cc2ccccc2c1C#N", 78),
    ("Cn1ncc(-c2ccc3c(=O)[nH]nc(CN)c3c2)c1-c1cccc(Cl)c1C#N", 121),
]

###

// CLint scaled lookup, one value per entry
Assay: Intrinsic clearance in human hepatocytes
Assay type: ADME, cell-based, Hepatocyte
Conditions: read-out: CLH

# Chemical string, Relation symbol, CLint scaled, mL/min/kg
rows = [
    ("Cn1ncc(-c2ccc3c(=O)[nH]nc(CN)c3c2)c1-c1c(F)ccc(OC2CC2)c1C#N", "=", 18),
    ("Cn1ncc(-c2ccc3c(=O)[nH]nc(CN)c3c2)c1-c1ccc2ccccc2c1C#N", "<", 18),
    ("Cn1ncc(-c2ccc3c(=O)[nH]nc(CN)c3c2)c1-c1ccccc1C#N", "<", 18),
    ("Cn1ncc(-c2ccc3c(=O)[nH]nc(CN)c3c2)c1-c1sc2ccccc2c1C#N", "=", 41),
    ("Cn1ncc(-c2ccc3c(=O)[nH]nc(CN)c3c2)c1-c1c(F)cc2ccccc2c1C#N", "=", 18),
]
